Each record here notes measured shrunken log2 fold change.
system: Escherichia coli TOP10; experiment: shrunken log2 fold change of peptide-encoding DNA abundance (4.5 h post-induction vs induction); higher = less antimicrobial activity (less host growth inhibition); settings: time post-induction: 4.5 h; library: site-saturation at positions 5, 18, 19, 20
readout: shrunken log2 fold change

- sequence.data: "RRIRHRPPRLPRPRPRPMEIPRP"
  result.value: -0.0801
- sequence.data: "RRIRWRPPRLPRPRPRPEPWPRP"
  result.value: 0.725
- sequence.data: "RRIRSRPPRLPRPRPRPMWVPRP"
  result.value: -0.0635
- sequence.data: "RRIRGRPPRLPRPRPRPVLGPRP"
  result.value: 0.343
- sequence.data: "RRIRSRPPRLPRPRPRPQNAPRP"
  result.value: -0.427
- sequence.data: "RRIRNRPPRLPRPRPRPTICPRP"
  result.value: -0.119
- sequence.data: "RRIRQRPPRLPRPRPRPFSDPRP"
  result.value: -0.00196
- sequence.data: "RRIRMRPPRLPRPRPRPKHRPRP"
  result.value: 0.229
- sequence.data: "RRIRCRPPRLPRPRPRPQYDPRP"
  result.value: -0.644
- sequence.data: "RRIRFRPPRLPRPRPRPAAPPRP"
  result.value: 0.745
- sequence.data: "RRIRVRPPRLPRPRPRPCCKPRP"
  result.value: 0.905
- sequence.data: "RRIRRRPPRLPRPRPRPKRHPRP"
  result.value: 0.227
- sequence.data: "RRIRQRPPRLPRPRPRPWCPPRP"
  result.value: -0.261
- sequence.data: "RRIRKRPPRLPRPRPRPWMCPRP"
  result.value: -0.316
- sequence.data: "RRIRIRPPRLPRPRPRPFKHPRP"
  result.value: -1.2

---

Overview of reported shrunken log2 fold change across a group of sequences:
system: Escherichia coli TOP10; test: shrunken log2 fold change of peptide-encoding DNA abundance (4.5 h post-induction vs induction); higher = less antimicrobial activity (less host growth inhibition); conditions: time post-induction: 4.5 h; library: site-saturation at positions 5, 18, 19, 20;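 further: peptides expressed intracellularly from a pBAD plasmid library in pooled LB shake-flask culture, induced with 0.3% L-arabinose, DNA abundance read by NGS, three biological replicates, DESeq2 with apeglm shrinkage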

- sequence.data: "RRIRERPPRLPRPRPRPPTPPRP"
  shrunken log2 fold change: 0.192
- sequence.data: "RRIRTRPPRLPRPRPRPVHIPRP"
  shrunken log2 fold change: -0.149
- sequence.data: "RRIRGRPPRLPRPRPRPLDHPRP"
  shrunken log2 fold change: 0.178
- sequence.data: "RRIRIRPPRLPRPRPRPVISPRP"
  shrunken log2 fold change: -0.43
- sequence.data: "RRIRWRPPRLPRPRPRPQFEPRP"
  shrunken log2 fold change: 1.87
- sequence.data: "RRIRVRPPRLPRPRPRPHISPRP"
  shrunken log2 fold change: 0.0648
- sequence.data: "RRIRVRPPRLPRPRPRPTGRPRP"
  shrunken log2 fold change: 0.274
- sequence.data: "RRIRHRPPRLPRPRPRPKCHPRP"
  shrunken log2 fold change: -0.201
- sequence.data: "RRIRSRPPRLPRPRPRPMKKPRP"
  shrunken log2 fold change: -0.0833
- sequence.data: "RRIRSRPPRLPRPRPRPVARPRP"
  shrunken log2 fold change: 0.148
- sequence.data: "RRIRSRPPRLPRPRPRPMICPRP"
  shrunken log2 fold change: -0.0898
- sequence.data: "RRIRFRPPRLPRPRPRPMLTPRP"
  shrunken log2 fold change: -0.351
- sequence.data: "RRIRWRPPRLPRPRPRPRTTPRP"
  shrunken log2 fold change: 0.755
- sequence.data: "RRIRGRPPRLPRPRPRPTSRPRP"
  shrunken log2 fold change: 0.336
- sequence.data: "RRIRIRPPRLPRPRPRPQECPRP"
  shrunken log2 fold change: -0.0195
